All values here come from paper PMC4336329.

# test.system: human ether-à-go-go-related gene (hERG) potassium channel (human);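 note: peak tail current of the secondary pulse compared with the same well before compound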
# Sequence (Q12809 whole entry, looked up): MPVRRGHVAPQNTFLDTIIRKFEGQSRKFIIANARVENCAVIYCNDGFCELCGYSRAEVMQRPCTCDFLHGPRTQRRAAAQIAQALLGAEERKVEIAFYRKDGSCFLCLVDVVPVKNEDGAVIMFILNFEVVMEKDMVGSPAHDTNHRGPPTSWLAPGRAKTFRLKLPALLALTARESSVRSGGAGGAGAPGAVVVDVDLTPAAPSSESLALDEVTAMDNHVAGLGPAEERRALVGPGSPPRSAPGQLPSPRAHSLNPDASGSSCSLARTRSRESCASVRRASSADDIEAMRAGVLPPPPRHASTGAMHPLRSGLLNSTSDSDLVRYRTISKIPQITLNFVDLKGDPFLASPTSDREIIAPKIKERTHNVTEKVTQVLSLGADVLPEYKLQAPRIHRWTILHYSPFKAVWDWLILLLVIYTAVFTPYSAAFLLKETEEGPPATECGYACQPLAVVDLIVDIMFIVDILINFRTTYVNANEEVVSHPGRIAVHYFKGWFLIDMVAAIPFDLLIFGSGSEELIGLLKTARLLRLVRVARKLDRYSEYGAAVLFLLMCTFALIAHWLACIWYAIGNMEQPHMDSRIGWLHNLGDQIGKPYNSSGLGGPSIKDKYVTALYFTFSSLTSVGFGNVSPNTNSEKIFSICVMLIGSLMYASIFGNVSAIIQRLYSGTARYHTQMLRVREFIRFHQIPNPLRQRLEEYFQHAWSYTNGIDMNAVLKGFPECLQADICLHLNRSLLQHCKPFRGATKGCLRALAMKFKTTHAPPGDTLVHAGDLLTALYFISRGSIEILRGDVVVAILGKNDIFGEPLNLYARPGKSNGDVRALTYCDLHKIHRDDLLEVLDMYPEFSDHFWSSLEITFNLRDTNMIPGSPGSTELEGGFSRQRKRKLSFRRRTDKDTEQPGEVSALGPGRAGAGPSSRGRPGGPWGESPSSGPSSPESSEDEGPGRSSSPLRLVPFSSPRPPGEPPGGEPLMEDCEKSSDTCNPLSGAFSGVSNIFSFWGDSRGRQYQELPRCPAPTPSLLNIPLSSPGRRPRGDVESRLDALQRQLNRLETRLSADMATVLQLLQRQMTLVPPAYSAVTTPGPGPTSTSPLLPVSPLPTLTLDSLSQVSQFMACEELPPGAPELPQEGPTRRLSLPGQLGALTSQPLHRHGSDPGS
# assay: primary screen, population patch clamp on CHO cells stably expressing hERG; higher = less effect of the substance
Among all 310,000 compounds or so, about 14,000 (4.5%) showed an effect of 50% or more. The effect is printed as a negative number. Only a selection was taken, and strong results are over-represented in it overall.
measured.metric: hERG current change (%, negative = inhibition) at 10uM (%)
Provide only the numeric value, understood in %.

# annotated cases, reported hERG current change (%, negative = inhibition) at 10uM shown
| compound | value.reported |
| --- | --- |
| CC(=O)c1ccc(OCC(O)CN2CCN(Cc3ccc4c(c3)OCO4)CC2)cc1.Cl (centres unmarked) | -49.8 |
| Cc1c(C(=O)N2CCN(c3ccccc3)CC2)sc2nc3n(c(=O)c12)CCC3 | 6.84 |
| O=C(O)c1cccc(CSc2nc(-c3ccc(Cl)cc3)cc(C(F)(F)F)n2)c1 | -0.199 |
| CC(=O)N(CC(=O)O)c1ccccc1 | 10.5 |
| Cn1c(NCCCN2CCOCC2)nc2c1c(=O)n(Cc1ccc(Cl)c(Cl)c1)c(=O)n2C | -46 |

Query: // fetch hERG current change (%, negative = inhibition) at 10uM given entry CC(C)c1nc2sc3c(c2c(=O)n1N)CC(C)(C)OC3
Result: 8.71

Query: // fetch hERG current change (%, negative = inhibition) at 10uM given entry Cn1c(N2CCCC2)nc2c1c(=O)n(Cc1ccc(Cl)cc1)c(=O)n2C
Result: -68.6

Query: // fetch hERG current change (%, negative = inhibition) at 10uM given entry O=C(COC(=O)c1cc(S(=O)(=O)N2CCOCC2)cs1)c1ccccc1
Result: -0.734

Query: // fetch hERG current change (%, negative = inhibition) at 10uM given entry CN(C)C(=S)Nc1ccc([N+](=O)[O-])cc1
Result: -0.053

Query: // fetch hERG current change (%, negative = inhibition) at 10uM given entry COc1cc(COCC(O)CN2CCN(Cc3ccc4c(c3)OCO4)CC2)cc(OC)c1OC.Cl (centres unmarked)
Result: -0.319

Query: // fetch hERG current change (%, negative = inhibition) at 10uM given entry CCOc1ccc(C(=O)N2CCN(C(=O)c3ccco3)CC2)cc1OCC
Result: -5.57

Query: // fetch hERG current change (%, negative = inhibition) at 10uM given entry COc1cccc(C(=O)N2CCN(CCCc3ccccc3)CC2)c1OC.O=C(O)C(=O)O
Result: -46.7

Query: // fetch hERG current change (%, negative = inhibition) at 10uM given entry Cn1c(=O)c2c(nc(N3CCCCC3)n2C)n(C)c1=O
Result: -21.5

Query: // fetch hERG current change (%, negative = inhibition) at 10uM given entry CCOc1ccc(C(=O)N2CCN(CCc3ccccc3)CC2)cc1OCC
Result: -78.8
